Here, each record is paired with measured viability at 72 h, 0.1 µM data.
Test: Viability of HT-29 human colon cancer cells, MTT assay
Format: cell-based
Details: HT-29 colon cancer cells, 0.1 μM, 72 h exposure, HT-29, MTT, read-out: Cell viability rate as a percent of the vehicle (DMSO)-treated cells
Protocol: HT-29 cells were grown in culture using standard methods. The cells were exposed to vehicle (DMSO), mesalamine or Compound XXXV. Concentrations ranging from 0.1 to 10 μM were tested, with each concentration tested in 6 wells. At the end of 72 h of exposure to the test drugs, cell viability was measured using the MTT [3-(4,5-dimethylthiaxol-2-yl)-2,5-diphenyltetrazolium bromide] assay (Carmichael et al. (1978) Cancer Res. 47, 936-942), incorporated herein by reference.
Unit % implied. Number only.

smiles_entry=Nc1ccc(O)c(C(=O)Oc2ccc(-c3cc(=S)ss3)cc2)c1 property_label="viability at 72 h, 0.1 µM" u=% observed_measurement=88.4

Kindly review the next compound as well.
Task: Need viability at 72 h, 0.1 µM, item `Nc1ccc(O)c(C(=O)O)c1`
Result: 104
